Target: chicken gizzard smooth muscle myosin subfragment-1 chemically crosslinked to cardiac or skeletal actin (Gallus gallus, UniProt P10587)
Construct: chicken gizzard smooth muscle myosin subfragment-1; from tissue; host or cells: chicken gizzard
Sequence (P02607 2-151): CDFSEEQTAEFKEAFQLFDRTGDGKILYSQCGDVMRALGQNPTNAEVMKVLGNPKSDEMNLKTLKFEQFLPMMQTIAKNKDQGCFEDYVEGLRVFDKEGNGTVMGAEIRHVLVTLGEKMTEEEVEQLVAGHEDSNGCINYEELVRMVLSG
Sequence (P10587 84-789): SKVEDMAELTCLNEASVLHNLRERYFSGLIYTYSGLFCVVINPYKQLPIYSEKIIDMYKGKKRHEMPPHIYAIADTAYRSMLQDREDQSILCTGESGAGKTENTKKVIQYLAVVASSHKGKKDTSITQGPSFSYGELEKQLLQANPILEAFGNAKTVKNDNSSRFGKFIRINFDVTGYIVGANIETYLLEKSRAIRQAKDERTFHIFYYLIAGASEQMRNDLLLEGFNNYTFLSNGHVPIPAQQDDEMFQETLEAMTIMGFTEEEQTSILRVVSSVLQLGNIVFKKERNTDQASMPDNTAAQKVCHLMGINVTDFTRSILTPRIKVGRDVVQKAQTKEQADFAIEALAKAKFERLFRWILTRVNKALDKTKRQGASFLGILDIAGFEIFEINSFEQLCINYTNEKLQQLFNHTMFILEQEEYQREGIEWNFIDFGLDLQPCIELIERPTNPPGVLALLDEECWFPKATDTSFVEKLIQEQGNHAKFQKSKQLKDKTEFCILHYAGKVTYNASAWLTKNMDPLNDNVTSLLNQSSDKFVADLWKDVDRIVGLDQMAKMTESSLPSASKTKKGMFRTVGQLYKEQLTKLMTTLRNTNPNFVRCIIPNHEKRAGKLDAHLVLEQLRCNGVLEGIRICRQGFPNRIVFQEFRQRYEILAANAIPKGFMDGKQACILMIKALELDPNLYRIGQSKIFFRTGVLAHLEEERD
Assay: Smooth muscle myosin ATPase dose response assay (pyruvate kinase/horseradish peroxidase/pyruvate oxidase-coupled, amplex red fluorescence)
Format: biochemical
Details: read-out: IC50 Arithmetic Mean
Value type: IC50 (nM)

Some solved entries appear below for comparison.
{"columns": ["Compound", "IC50 (nM)"],
 "data": [
  ["CC(C)(C)OC(=O)NCCn1ccc(CNC(=O)c2ccc(-c3ccccc3C#N)nc2NCCc2cccc(F)c2)n1", 2730],
  ["N#Cc1ccccc1-c1ccc(C(=O)NC[C@H]2CNCCN2)c(NCCc2cccc(F)c2)n1", 12200],
  ["COC(=O)N1CCN(C)C[C@@H]1CNC(=O)c1ccc(-c2ccccc2C#N)nc1NCCc1cccc(F)c1", 10100],
  ["CC[C@H](CNC(=O)c1cc(F)c(-c2cnn(C)c2)nc1NCCc1cccc(F)c1)C(=O)OC", 117],
  ["NCc1ccc(CNC(=O)c2ccc(-c3ccccc3)nc2NCCc2cccc(F)c2)cn1", 420],
  ["Cc1cccc(CNC(=O)c2ccc(-c3ccccc3C#N)nc2NCCc2cccc(F)c2)n1", 54],
  ["C[C@H](CNC(=O)c1ccc(-c2ccccc2C#N)nc1NCCc1cccc(F)c1)NC(=O)CN", 41],
  ["C[C@@H](CN)CNC(=O)c1cc(F)c(-c2cnn(C)c2)nc1NCCc1cccc(F)c1", 1050]
]}

[1] CC(C)(C)OC(=O)NCc1ncccc1CNC(=O)c1ccc(-c2ccccc2C#N)nc1NCCc1cccc(F)c1
[2] N#Cc1ccccc1-c1ccc(C(=O)NCCCN2C(=O)CC[C@@H]2CN)c(NCCc2cccc(F)c2)n1
Q: // which entry reports the smaller IC50, 1 or 2 ? The response must carry the label of the picked entry.
Ans: 1
(1: 1210 nM, 2: 4950 nM)

[I] CNC(=O)[C@H](N)CCNC(=O)c1ccc(-c2ccccc2C#N)nc1NCCc1cccc(F)c1
[II] COc1ccccc1CCNc1nc(-c2ccccc2)ccc1C(=O)NCc1cccnc1
Q: // compare measured IC50, left I , right II , return larger The response must carry the label of the picked entry.
Ans: I
(I: 12900 nM, II: 980 nM)

[I] O=C(NCc1cccnc1)c1ccc(-c2ccccc2)nc1NCCc1ccc2c(c1)OCO2
[II] N#Cc1ccccc1-c1ccc(C(=O)NCCCN2C(=O)CC[C@H]2CN=[N+]=[N-])c(NCCc2cccc(F)c2)n1
Q: // compare measured IC50, left I , right II , return larger The response must carry the label of the picked entry.
Ans: I

###

Target: chicken gizzard smooth muscle myosin subfragment-1 chemically crosslinked to cardiac or skeletal actin (Gallus gallus)
Value type: IC50 (nM)

{"columns": ["Molecule", "IC50 [nM]"],
 "data": [
  ["CNC(=O)CNC(=O)c1ccc(-c2cn[nH]c2)nc1NCCc1cccc(F)c1", 328]
]}

[A] N#Cc1ccccc1-c1ccc(C(=O)NC[C@H](N)C(N)=O)c(NCCc2cccc(F)c2)n1
[B] O=C(NCc1cccnc1)c1cc(F)c(-c2cn[nH]c2)nc1NCCn1cccn1
Q: // compare measured IC50, left A , right B , return larger The response must carry the label of the picked entry.
Ans: A
(A: 669 nM, B: 211 nM)

[a] N#Cc1ccccc1-c1ccc(C(=O)NC[C@H]2CCC(=O)N2CCCCCN2C(=O)c3ccccc3C2=O)c(NCCc2cccc(F)c2)n1
[b] Cc1csc(-c2ccc(C(=O)NCc3cccnc3)c(NCCc3cc(F)cc(F)c3)n2)c1
Q: // which entry reports the smaller IC50, a or b ? The response must carry the label of the picked entry.
Ans: b

[I] CC(C)(C)OC(=O)NCCN1CCCC1CNC(=O)c1ccc(-c2ccccc2C#N)nc1NCCc1cccc(F)c1 (centres unmarked)
[II] CC(C)(C)OC(=O)N[C@H](CO)C(=O)N1CC[C@@H]1CNC(=O)c1ccc(-c2ccccc2C#N)nc1NCCc1cccc(F)c1
[III] CC(C)(C)OC(=O)NCCCN1CCC[C@@H]1CNC(=O)c1ccc(-c2ccccc2C#N)nc1NCCc1cccc(F)c1
[IV] CN(C)c1cccc(-c2ccc(C(=O)NCc3cccnc3)c(NCCc3ccccn3)n2)c1
[V] CN(CCNC(=O)c1ccc(-c2ccccc2C#N)nc1NCCc1cccc(F)c1)C(=O)OC(C)(C)C
Q: Rank the items in ascending order with respect to IC50. Show the ranking through the labels, in the order asked for.
Ans: II, III, I, IV, V
(II: 439 nM, III: 1340 nM, I: 4830 nM, IV: 12400 nM, V: 42200 nM)

###

Biological target: chicken gizzard smooth muscle myosin subfragment-1 chemically crosslinked to cardiac or skeletal actin (Gallus gallus, UniProt P10587)
Value type: IC50 (µM)

[P] O=C(NC[C@H]1CCN1)c1ccc(-c2cn[nH]c2)nc1NCCc1cccc(F)c1
[Q] O=C(NCc1cccnc1)c1ccc(-c2ccccc2)nc1NCCc1ccc(F)c(F)c1
Q: // which entry reports the smaller IC50, P or Q ? The response must carry the label of the picked entry.
Ans: Q

[P] CC(C)(C)OC(=O)NCCC(=O)N1CCCC[C@H]1CNC(=O)c1ccc(-c2ccccc2C#N)nc1NCCc1cccc(F)c1
[Q] CC(=O)N1CC[C@H](CNC(=O)c2ccc(-c3ccccc3)nc2NCCc2ccccn2)C1
Q: // which entry reports the smaller IC50, P or Q ? The response must carry the label of the picked entry.
Ans: P

[1] CC(C)NC(=O)c1ccc(-c2ccccc2)nc1NCCc1ccccn1
[2] O=C1CC[C@H](CNC(=O)c2ccc(-c3cc[nH]n3)nc2NCCc2cccc(F)c2)N1
[3] O=C(NCc1cccnc1)c1ccc(-c2ccc(Cl)cc2)nc1NCCc1ccccn1
[4] Cn1cc(-c2nc(NCCc3cccc(F)c3)c(C(=O)NCc3cccnc3CN)cc2F)cn1
[5] Cn1cc(-c2ccc(C(=O)NCc3cccnc3)c(NCCc3cccc(F)c3)n2)cn1
Q: Rank the items in ascending order with respect to IC50. Show the ranking through the labels, in the order asked for.
Ans: 4, 5, 2, 3, 1
(4: 0.012 µM, 5: 0.04 µM, 2: 0.355 µM, 3: 0.629 µM, 1: 13.3 µM)

###

Target: chicken gizzard smooth muscle myosin subfragment-1 chemically crosslinked to cardiac or skeletal actin (Gallus gallus)
Value type: IC50 (µM)

Some solved entries appear below for comparison.
{"columns": ["Smiles repr", "Experimental result"],
 "data": [
  ["N#Cc1ccccc1-c1ccc(C(=O)NCCN2CCC[C@H](NC(=O)OCc3ccccc3)C2=O)c(NCCc2cccc(F)c2)n1", 11.8],
  ["N#Cc1ccccc1-c1ccc(C(=O)NC[C@@H]2CCC(=O)N2CCN)c(NCCc2cccc(F)c2)n1", 0.917],
  ["N#Cc1ccccc1-c1ccc(C(=O)NC[C@H](N)C(=O)O)c(NCCc2cccc(F)c2)n1", 9.76],
  ["Cn1cc(-c2ccc(C(=O)NC[C@H]3CCCN3C(=O)CCCO)c(NCCc3cccc(F)c3)n2)cn1", 1.46],
  ["Cc1ccc(-c2ccc(C(=O)NCc3cccnc3)c(NCCc3ccccn3)n2)c(C)c1", 3.96]
]}

[I] NCCn1ccc(CNC(=O)c2ccc(-c3cc[nH]n3)nc2NCCc2cccc(F)c2)n1
[II] CN1CCN(C(=O)CN)[C@@H](CNC(=O)c2ccc(-c3ccccc3C#N)nc2NCCc2cccc(F)c2)C1
[III] NCCCn1nccc1CNC(=O)c1ccc(-c2cc[nH]n2)nc1NCCc1cccc(F)c1
[IV] N#Cc1ccccc1-c1ccc(C(=O)NCc2cccnc2)c(NCCc2ccco2)n1
Q: Order the records so the highest IC50 appears first and the lowest last. Show the ranking through the labels, in the order asked for.
Ans: I, II, III, IV

###

Biological target: chicken gizzard smooth muscle myosin subfragment-1 chemically crosslinked to cardiac or skeletal actin (Gallus gallus)
Value type: IC50 (nM)

{"columns": ["Smiles repr", "IC50 [nM]"],
 "data": [
  ["CNC(=O)[C@H](CN)NC(=O)c1ccc(-c2ccccc2C#N)nc1NCCc1cccc(F)c1", 3450]
]}

[I] CC(C)(C)OC(=O)NCCCN1CC(=O)N[C@H](CNC(=O)c2ccc(-c3ccccc3C#N)nc2NCCc2cccc(F)c2)C1
[II] O=C(NCc1cccnc1)c1ccc(-c2ccccc2)nc1NCCc1ccccc1Cl
Q: // compare measured IC50, left I , right II , return larger The response must carry the label of the picked entry.
Ans: I

[1] Cn1cc(-c2nc(NCCc3cccc(F)c3)c(C(=O)NC[C@H]3CCCN3C(=O)CCCN)cc2F)cn1
[2] CC(C)(C)OC(=O)NCc1cccc(CNC(=O)c2ccc(-c3ccccc3C#N)nc2NCCc2cccc(F)c2)n1
[3] O=C(NCc1ncc[nH]1)c1ccc(-c2ccccc2)nc1NCCc1ccccn1
[4] O=C(NCc1cccnc1)c1ccc(-c2cnoc2)nc1NCCc1cccc(F)c1
Q: Rank the items in ascending order with respect to IC50. Show the ranking through the labels, in the order asked for.
Ans: 1, 2, 3, 4

These entries and their values trace back to patent US7932270B2.
